Attribution: the RNAGym collection of RNA variant scans (doi:10.7554/elife.80360)

B1: CPEB3 Ribozyme (parent)
chain: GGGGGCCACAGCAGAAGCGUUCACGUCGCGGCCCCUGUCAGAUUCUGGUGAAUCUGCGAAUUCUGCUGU

Variants of: B1
Assay: self-cleavage, relative activity (ratio to wild type); higher = more cleavage; co-transcriptional
Note to self: class = bucket of self-cleavage, per lower band (below 0.2), central band (0.2 to below 0.4), upper band (0.4 or more)

Solved entries (count: 2):
residue.change	assigned.label
A16G G19C	lower band
C33A C63A	upper band

Q) Which self-cleavage category applies to G25C U26G here?
A) lower band

Q) Which self-cleavage category applies to A8U G28A here?
A) lower band

Q) Which self-cleavage category applies to A23C U53A here?
A) upper band

Q) Which self-cleavage category applies to G14C C66G here?
A) upper band

Q) Which self-cleavage category applies to G5U U38A here?
A) central band

Q) Which self-cleavage category applies to A13G U20A here?
A) lower band

Q) Which self-cleavage category applies to G3A U64C here?
A) upper band

Q) Which self-cleavage category applies to A23G A51C here?
A) upper band

Q) Which self-cleavage category applies to G25A U61A here?
A) lower band

Q) Which self-cleavage category applies to G41U A52U here?
A) upper band

Q) Which self-cleavage category applies to A59C A60U here?
A) central band

Q) Which self-cleavage category applies to C35U U67A here?
A) upper band

Q) Which self-cleavage category applies to U20A U21A here?
A) central band

Q) Which self-cleavage category applies to A16C C57A here?
A) lower band

Q) Which self-cleavage category applies to G19A U21A here?
A) lower band

Q) Which self-cleavage category applies to G25U C32U here?
A) central band
